Known activity, negative = inhibition of a selection of compounds
test: Stat Signaling Pathway (AID 446); details: ME-180 (cervical carcinoma) SIE beta-lactamase reporter, IL-6 stimulated, 5 h; at 7.69 µM (top of the series) unless noted;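 also: ME-180 cervical cancer cells given 40 pM IL-6 alongside compound; SIE-controlled beta-lactamase reporter measured as 460/530 nm FRET emission ratio; % is scaled to controls: 0 for no effect and ±100 for the full control effect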
Inconclusive results are not listed. Activity calls are given as the source filed them. Calls follow the shape of the dose curve; as a rule, active = well fitted curve in either direction with a large enough effect (not every such curve was filed as active); inconclusive = small, poorly fitted or top-dose-only effect, or another doubt; inactive = flat fitted curve, though single readings scatter.
ASSAY ENDPOINT: activity, negative = inhibition

1. Cc1cc(Cl)ccc1Nc1sc(C(=O)c2cc3cc(Cl)ccc3o2)c(N)c1C#N
-13.7% (inactive)
2. CC[C@](N)(C(=O)O)C(C)C
-6.84% (inactive)
3. CCOC(=O)CCCN
8.34% (inactive)
4. O=C(O)CSCc1cccc2ccccc12
2.65% (inactive)
5. CCCCC/C=C\C[C@H](O)/C=C\c1cccc(C[C@H](O)CCCCO)n1
54.3% [at 38 µM] (inactive)
6. C/C(=N/Nc1nc(C)cc(=O)[nH]1)C(=O)O
-0.204% (inactive)
7. COC(=O)c1ccc(CCc2cc(O)ccc2O)cc1
-16.8% (inactive)
8. Cc1nc2sc3c(c2c(=O)[nH]1)CCCC3
6.96% (inactive)
9. O=C(N/N=C\c1ccc2c(c1)CCC2)c1ccccc1O
-2.26% (inactive)
10. CCN1CCc2c(C#N)c(NCc3ccccc3)nc(NCCO)c2C1
-0.118% [at 17.2 µM] (inactive)
11. O=c1cnc2cnc(Oc3ccccc3)nc2n1Cc1ccc(F)cc1
18.8% (inactive)
12. O=C1C[C@H]2C(=O)[C@@H]1[C@@H](C(=O)O)[C@H]2C(=O)O
-5.86% (inactive)
13. C[C@H]1[C@H](C)OC(=O)C[C@H](O)C[C@H](O)C[C@H](O)CC[C@H](O)[C@H](O)CC(=O)C[C@H](O)[C@H](C(=O)O)[C@H](O)C[C@H](O[C@@H]2O[C@@H](C)[C@H](O)[C@@H](N)[C@@H]2O)C=CC=CC=CC=CCCC=CC=C[C@@](C)(O)[C@H]1O
-6.26% (inactive)
14. O=C(O)c1ccc(NCc2nc3cc4ccccc4cc3[nH]2)cc1
-2.42% (inactive)
15. O=C(O)c1[nH]c2c([N+](=O)[O-])cc([N+](=O)[O-])cc2c1C(=O)O
-6.73% (inactive)
16. [N-]=[N+]=CC(=O)COC(=O)c1ccccc1
-0.859% (inactive)
17. CN(C)Cc1ccc(O)c(CN(C)C)n1
0.249% (inactive)
18. CCCn1cnc2c(SCc3ccc(Cl)cc3)nc(N)nc21
-5.52% (inactive)
19. c1ccc2c(CN3CCN(Cc4c[nH]c5ccccc45)CC3)c[nH]c2c1
5.49% (inactive)
20. O=C(O)[C@@H](O)c1ccc(F)cc1
8.22% (inactive)
21. O=NN(Cc1ccc(Cl)cc1)[C@@H](C(=O)O)c1ccccc1
0.591% (inactive)
22. O=C(O)c1ccc(N[C@H](c2ccccc2)c2ccc3cccnc3c2O)cc1
-17% (inactive)
23. CC1=C/C(=C(/c2ccc(O)c(C)c2)c2ccccc2C(=O)O)C=CC1=O
4.74% (inactive)
24. O=C(O)[C@H]1C[C@H](C(=O)O)N1
-10.2% [at 38 µM] (inactive)
25. Cc1ccc(S(=O)(=O)NC(=O)OC23COCN2COC3)cc1
15.3% (inactive)
26. CN[C@@H](c1ccncc1)[C@@H](NC)c1ccncc1
-0.841% (inactive)
27. NC(CSS(=O)(=O)O)=N[C@@H]1C[C@H]2CC[C@@H]1C2
-5.27% (inactive)
28. O=C1O[C@@H]([C@H](O)[C@H](O)[C@H](O)CO)[C@@H](O)[C@@H]1O
-13.5% (inactive)
29. CNc1ncncc1-c1ccc(C(=O)N(C)C)cc1
8.34% (inactive)
30. O=C(O)C(Cl)(c1ccccc1)c1ccccc1
-5.62% (inactive)
31. Cc1cc(=O)[nH]c2cc3oc4ccccc4c3cc12
-1.36% (inactive)
32. FC(F)(F)c1cc(NC(=S)N2c3ccccc3-n3cccc3[C@H]2c2cccnc2)cc(C(F)(F)F)c1
-5.05% (inactive)
33. CCN(CC(=O)O)CC(=O)O
13.7% (inactive)
34. COc1nc(Cl)nc(Cl)c1Cl (tested in a mixture with another compound)
7.12% (inactive)
35. O=C(O)/C=C\C=C/c1ccc2c(c1)OCO2
1.24% (inactive)
36. Clc1ccc(CSc2ncnc3c2ncn3[C@@H]2CCCCO2)cc1
-14.7% (inactive)
37. CC(C)(C)c1ccc(O)c(CN(Cc2cc(C(C)(C)C)ccc2O)C2CCCCC2)c1
6.32% (inactive)
38. O=C(O)c1ccccc1-c1ccccc1C(=O)Nc1ccc2c(c1)[nH]c(=O)c1ccccc12
-25.4% (inactive)
39. O=C(c1ccncc1)N1CCC2(CCCN(c3cccc(-c4ccccc4)c3)C2)CC1
-7.37% (inactive)
40. N=c1ccn2c(n1)O[C@H]1[C@@H](OP(=O)(O)O)[C@H](CO)O[C@H]12
-1.19% (inactive)
41. O=C(O)Cc1cccnc1
3.03% (inactive)
42. CC1=CC(=O)CC(C)(C)[C@]1(O)/C=C\C(C)=C\C(=O)O
2.83% (inactive)
43. Cc1cc(C(C)(C)C)cc(CNC2CCCCC2)c1O
10.5% (inactive)
44. CC(C)(C)NCC[C@@H](O)c1cc(C(F)(F)F)nc2c(C(F)(F)F)cccc12
-4.67% (inactive)
45. COc1ccc(Oc2ncc3nc(C)c(=O)n(Cc4ccc(F)cc4)c3n2)cc1
-12.2% (inactive)

* * *

assay: NFAT Signaling Pathway (AID 444); settings: Jurkat NFAT-bla M1, carbachol, beta-lactamase ratio, 5 h; at 7.69 µM (top of the series) unless noted;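 also: carbachol stimulus at about its EC50 of 1 µM final; % is scaled to controls: 0 for no effect and ±100 for the full control effect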
Results filed as inconclusive are left out.
ASSAY ENDPOINT: activity change, negative = inhibition (%)

1) COc1cc2c(cc1OC)C(CCN)=NCC2
-11.2
2) Cc1ccc(N=Nc2ccc(N)cc2C)c(S(N)(=O)=O)c1
15.6
3) O=C(O)/C(Cc1ccc([N+](=O)[O-])cc1)=N/O
-0.295
4) CC(C)c1cc(CN(C)C)c(O)c(C(C)(C)C)c1
-5.67
5) COc1ccc(Oc2ncc3nc(CCc4ccccc4)c(=O)n(C4CC4)c3n2)cc1
5.02
6) O=c1[nH]c2[nH]c(=S)[nH]c(=S)c2[nH]1
-1.66
7) CC1=NNC(=S)NCCCN2CCN(CCCNC(=S)NN=C(C)C=NNC(=S)NCCCN3CCN(CCCNC(=S)NN=C1)CC3)CC2
5.96
8) Cc1nc2cccc([N+](=O)[O-])c2n1CCCN(C)C
12.7
9) COc1cccc2c1C(=O)c1c(O)c3c(c(O)c1C2=O)C[C@@](O)(C(=O)CO)C[C@H]3O[C@H]1C[C@@H](N)[C@H](O)[C@@H](C)O1.[W]
-27.2
10) O=C(NCc1cccs1)O[C@H]1C[C@H]2CC[C@@H]1C2
16.7

* * *

system: ECU; experiment: qHTS profiling for inhibitors of Plasmodium falciparum proliferation (AID 504749); also: nearly all actives have a fitted effect of over 60% in size; also: potency is read from the fitted curve at half-maximal effect; settings: P. falciparum in erythrocytes, SYBR Green DNA, 72 h; series mostly up to 28.7 µM
Inconclusive results are not listed. Activity calls are given as the source filed them. Calls come from the whole dose curve; as a rule, active = well fitted inhibition curve with a large enough effect; inconclusive = small, poorly fitted or top-dose-only effect; inactive = flat fitted curve, though single readings scatter.
ASSAY ENDPOINT: Potency

1) NS(=O)(=O)c1cc2c(cc1Cl)N[C@H](Cc1ccccc1)NS2(=O)=O
inactive
2) Cc1c(C(=O)O)c(O)cc2c1C(=O)c1c(O)c([C@H]3O[C@H](CO)[C@@H](O)[C@H](O)[C@H]3O)c(O)c(O)c1C2=O
inactive
3) C[C@H](CCC(=O)O)[C@H]1CC[C@@H]2[C@H]3[C@@H](C[C@@H](O)[C@]21C)[C@]1(C)CC[C@H](O)C[C@@H]1C[C@@H]3O
inactive
4) COc1cc2nc(N(C)CCCNC(=O)[C@@H]3CCCO3)nc(N)c2cc1OC
inactive
5) Cc1onc(-c2c(F)cccc2Cl)c1C(=O)N[C@@H]1C(=O)N2[C@H]1SC(C)(C)[C@H]2C(=O)O
inactive
6) CN1[C@@H]2CC(OC(=O)[C@@H](CO)c3ccccc3)C[C@@H]1[C@H]1O[C@H]12 (stereo partly specified)
inactive
7) C[C@]12CC[C@H]3c4ccc(O)cc4CC[C@@H]3[C@H]1CC[C@@H]2OP(=O)(O)O
inactive
8) CC(C)(C)NC[C@@H](O)c1ccc(O)c(CO)n1
inactive
9) Cc1cn([C@H]2C[C@H](N=[N+]=[N-])[C@H](CO)O2)c(=O)[nH]c1=O
inactive
10) C(=C/c1ccccc1)/CN1CCN(C(c2ccccc2)c2ccccc2)CC1
inactive
11) O=C(O)[C@@H](S)[C@H](S)C(=O)O
11.2 µM (active)
12) N[C@@H](Cc1ccccc1)C(=O)O
inactive
13) C[C@@H]1C[C@H]2[C@H]3C[C@@H](F)C4=CC(=O)C=C[C@]4(C)[C@@]3(Cl)[C@@H](O)C[C@@]2(C)[C@@H]1C(=O)COC(=O)C(C)(C)C
inactive
14) CO/N=C(\C(=O)N[C@@H]1C(=O)N2C(C(=O)[O-])=C(C[N+]3(C)CCCC3)CS[C@@H]12)c1csc(N)n1
inactive
15) O=C(O)[C@@H](O)[C@@H](O)[C@H](O)C(=O)CO
inactive
16) C=C(NC(=O)C(=C)NC(=O)c1csc(C2=N[C@@H]3c4csc(n4)[C@@H]4NC(=O)c5csc(n5)[C@@H]([C@](C)(O)[C@H](C)O)NC(=O)[C@@H]5CSC(=N5)/C(=C/C)NC(=O)[C@@H]([C@H](C)O)NC(=O)c5csc(n5)[C@]3(CC2)NC(=O)[C@@H](C)NC(=O)C(=C)NC(=O)[C@@H](C)NC(=O)[C@@H]([C@@H](C)CC)N[C@H]2C=Cc3c([C@H](C)O)cc(nc3[C@@H]2O)C(=O)O[C@H]4C)n1)C(N)=O
inactive
